Recorded values, source paper PMC5540273.

# %Inh listing for each entry below
Test system: FLT3-autoinhibited;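 note: KINOMEscan kinase panel screen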
Conditions: concentration: 1 μM, replicates: in singlicate; n = 1
Write the number in % without appending the unit.

CNC(=O)c1ccccc1Nc1nc(Nc2ccc(N3CCOCC3)cc2)ncc1Cl.Cl	96.2

Tell me the measured %Inh of O=C(NC1CCN(c2ccnc(Nc3ccc(F)cc3)n2)C1)c1cc2ccccc2s1 (centres unmarked) , please.
0

Tell me the measured %Inh of Nc1ncc(-c2cccnc2)c2scc(-c3ccc4c(c3)CCN4C(=O)Cc3ccccc3)c12 , please.
5

Tell me the measured %Inh of FC(F)(F)c1ccc(/C=C/c2cncnc2Nc2ccc3[nH]c(Cc4ccccc4)nc3c2)cc1 , please.
0

Tell me the measured %Inh of CC(=O)N1CCN(c2ccc(Nc3nccc(-c4sc(C(C)C)nc4-c4cccc(NS(=O)(=O)c5cccc(Cl)c5)c4)n3)cn2)CC1 , please.
9

Tell me the measured %Inh of Cn1cc(-c2[nH]c3cc(NC(=O)[C@H](N)C4CCCCC4)cc4c3c2C=NNC4=O)cn1 , please.
96.3

Tell me the measured %Inh of Cc1ccc(F)c(C(=O)Nc2cccc(-c3nn4ccccc4c3-c3ccnc(Nc4cccc(F)c4)n3)c2)c1F , please.
0

Tell me the measured %Inh of CN1CCN(CCCNc2nccc(-c3c(-c4ccc(F)cc4)nn4cc(C(F)(F)F)ccc34)n2)CC1 , please.
0
